system: sugar beet; experiment: Test B pre/postemergence sugar beet; format: in vivo, Beta vulgaris; settings: Preemergence, Rate 500 g/ha; scale 0 to 10 (0 no effect, 10 complete control)
Threshold check on Sugarbeets plant response rating: strictly below 6 is Fulfilled; on or above 6 is Not fulfilled.

Does the reported Sugarbeets plant response rating of the following compound sit strictly below 6? CC(C)N(Cc1ccccc1)C(=O)n1oc(=O)n(C(C)C)c1=O [Compound 165]
Fulfilled

Does the reported Sugarbeets plant response rating of the following compound sit strictly below 6? CC(C)N(C(=O)n1oc(=O)n(-c2cnn(C)c2)c1=O)c1ccccc1 [Compound 123]
Not fulfilled

----------
System: crabgrass
Test: Test B pre/postemergence crabgrass
Type: in vivo, Digitaria sanguinalis
Conditions: Preemergence, Rate 62 g/ha; scale 0 to 10 (0 no effect, 10 complete control)
Description: […] At the same time, these crop and weed species were also treated with postemergence applications of test chemicals formulated in the same manner. […] Treated plants and controls were maintained in a greenhouse for twelve to sixteen days, after which all species were compared to controls and visually evaluated. […]
ASSAY_METRIC: Crabgrass plant response rating
Reply briefly: the number, and no unit.

Write down measured Crabgrass plant response rating (crabgrass) for this compound. CCN(CC)C(=O)n1oc(=O)n(Cc2ccccc2)c1=O [Compound 152]
0

More entries:
Write down measured Crabgrass plant response rating (crabgrass) for this compound. COCCn1c(=O)on(C(=O)N(c2ccccc2)C(C)C)c1=O [Compound 631]
7

Write down measured Crabgrass plant response rating (crabgrass) for this compound. CC(C)N(C(=O)n1oc(=O)n(CC(=O)N(C)C)c1=O)c1ccc(F)cc1 [Compound 586]
9

Write down measured Crabgrass plant response rating (crabgrass) for this compound. CC(C)N(C(=O)n1oc(=O)n(CCC(F)=C(F)F)c1=O)c1ccccc1 [Compound 566]
9

Write down measured Crabgrass plant response rating (crabgrass) for this compound. CCN(Cc1ccccc1)C(=O)n1oc(=O)n(-c2c(C)cccc2C)c1=O [Compound 70]
0

Source: patent US6737383B1
